The measurements presented in this section are drawn from PubChem BioAssay (NCI).

Measured TGI, listed per entry for reference.
test system: SF-539 CNS; test: NCI tumour cell line growth inhibition, 48 h
Please state the figure in µM; there is no need to write the unit.

{"Molecule": "O=C(Nc1ccncc1)C(=O)c1cn(S(=O)(=O)c2ccc(Cl)cc2)c2ccccc12", "Unit Descriptor": "µM", "Test Value": 12.5}
{"Molecule": "COc1cc(C2SCC(=O)N2c2ncc(C)s2)cc(OC)c1OC (centres undefined)", "Unit Descriptor": "µM", "Test Value": 43.9}
{"Molecule": "CO/N=C(\\C)c1ccc(Nc2cc(-c3ccccc3)nc3ccc(OC)cc23)cc1", "Unit Descriptor": "µM", "Test Value": 4.74}
{"Molecule": "COc1ccc(/C=C2\\CCS(=O)(=O)c3ccccc3C2=O)cc1", "Unit Descriptor": "µM", "Test Value": 67.4}
{"Molecule": "COC(=O)C(Cc1c[nH]c2ccccc12)NC(=O)c1ccc(-c2ccc(Cl)cc2Cl)o1 (centres undefined)", "Unit Descriptor": "µM", "Test Value": 91}
{"Molecule": "Cn1cnc([N+](=O)[O-])c1Sc1nccn1-c1cccc2ccccc12", "Unit Descriptor": "µM", "Test Value": 90.2}
{"Molecule": "COc1cc(-c2cc(=O)c3c(O)c(CC=C(C)C)c(O)cc3o2)ccc1O", "Unit Descriptor": "µM", "Test Value": 47.6}
{"Molecule": "CCN(CC)CCCNCc1cc(-c2ccccc2)nc2ccccc12", "Unit Descriptor": "µM", "Test Value": 8.49}

Just so you know, measured TGI for "COc1cc(C(=O)N2CCN(c3ncnc4ccccc34)CC2)c(N)cc1OCc1ccccc1" came out at 33.2

Just so you know, measured TGI for O=C(c1ccccc1)C(CN1CCCCC1)c1ccccc1 (centres undefined) came out at 3.94

Just so you know, measured TGI for CCC(=O)Nc1ccc(NC(C#N)c2cccc(Oc3ccccc3)c2)cc1 (centres undefined) came out at 74.2

Just so you know, measured TGI for Cc1cccc(C(C)(C)C)c1NC(=O)CC1C(=O)Nc2ccccc2S1(=O)=O (centres undefined) came out at 10.2

Just so you know, measured TGI for Cc1ccc(O)c(C2=CC(c3cccc(Cl)c3)SC(N)=N2)c1 (centres undefined) came out at 53.1
